So I've got a bunch of compounds here, and I need their normalized growth values.
- test summary: chemical genetic growth profiling, strain panel (AID 1159580);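 note: tested at 20 µM; growth read once vehicle control cultures reached saturation at 30 °C; 1 = growth at the plate median or of vehicle wells; lower values mean less growth of the strain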
- conditions used: S. cerevisiae deletion strains, growth OD, locus YER167W, strain BCK2, stronger effect = lower value
Out of some 5,500 compounds screened, about 2,000 (36%) were called active. Inconclusive results (about 18%) are left out. The list shows a part of the results.

CC(C)C1COc2cc3oc(=O)ccc3cc2O1 (stereo not given) :: 0.503 (active)
CCN1C[C@]2(C)CC[C@H](OC)[C@]34C2[C@H](O)[C@]2(OCO[C@@]25C[C@H](OC)[C@H]2C[C@]3(O)C5[C@H]2O)C14 :: 1 (inactive)
CCCCCc1c2c(cc(O)c1C(=O)O)OC(=O)c1c(cc(OC)cc1C(=O)CCCC)O2 :: 0.985 (inactive)
COc1ccc2c(c1)CCC1C2CCC2(C)C1C[C@@H](O)C2O (stereo not given in full) :: 0.999 (inactive)

// switching to the query compound
The recorded normalized growth for entry CN(C)c1nc(N)c(C(=O)N=C(N)N)nc1Cl equals 1.02 (inactive)

====

- test summary: chemical genetic growth profiling, strain panel (AID 1159580)
- conditions used: S. cerevisiae deletion strains, growth OD, locus YDR001C, strain nth1, stronger effect = lower value
The campaign covered roughly 5,500 compounds. About 2,000 (36%) were called active. Inconclusive results (about 18%) are left out. The list shows a part of the results.
assay metric: normalized growth
Numbers only.

Cc1ccccc1OCC(O)CO (stereo not drawn) :: 0.983
CC(C)[N+](C)(CCC(C(N)=O)(c1ccccc1)c1ccccc1)C(C)C :: 0.987
CCc1cc(C(N)=S)ccn1 :: 1
CCC(=O)c1c(O)cc(O)cc1O :: 0.987
O=c1c(O)c(-c2ccc(O)c(O)c2)oc2c(O)c(O)cc(O)c12 :: 1.02
O=c1cc(-c2ccc(O)cc2)oc2cc(O[C@@H]3O[C@H](CO)[C@@H](O)[C@H](O)[C@H]3O)cc(O)c12 :: 1.01
CC/C(=C(/CC)c1ccc(O)cc1)c1ccc(O)cc1 :: 1.01
N#Cc1nn(-c2c(Cl)cc(C(F)(F)F)cc2Cl)c(N)c1S(=O)C(F)(F)F (stereo not drawn) :: 0.992
O=c1c(O)c(-c2ccc(O)c(O)c2)oc2cc(O)cc(O)c12 :: 0.988
COC(=O)c1c(C)cc(OC)cc1O :: 0.983

Kindly give each listed record's normalized growth.
1. CC(C)(C)NCC(O)c1cc(Cl)c(N)c(Cl)c1 (stereo not drawn)
2. COC(=O)[C@@]1(C)CCC[C@]2(C)c3ccc(O)c(C(C)C)c3CCC12 (stereo partly drawn)
3. COc1ccc2c(c1)CCC1C2CCC2(C)C1C[C@@H](O)C2O (stereo partly drawn)
4. CCC1OC(=O)[C@H](C)C(=O)[C@H](C)[C@@H](OC2O[C@H](C)C[C@H](N(C)C)[C@H]2O)[C@](C)(OC)C2(CCCn3cnc(-c4cccnc4)c3)C[C@@H](C)C(=O)[C@H](C)[C@H]3N(C2)C(=O)O[C@]13C (stereo partly drawn)

Response given:
[0.995, 0.978, 1.01, 0.983]

Provide normalized growth values for the following items, in order.
1. C[C@H]1O[C@H](OC2[C@@H](O)[C@@H](O)C(O)[C@H](O)[C@H]2O)[C@@H](N)C[C@@H]1N=C(N)C(=O)O (stereo partly drawn)
2. CC(CC(O)C1OC1(C)C)[C@@H]1CCC2(C)C3=CCC4C(C)(C)C(=O)CCC4(C)C3CC[C@@]12C (stereo partly drawn)
3. CC1(C)C(=O)C=C[C@@]2(C)C1C=C[C@]1(C)C2CC[C@@]2(C)[C@H](c3ccoc3)OC(=O)C3OC321 (stereo partly drawn)
4. CC(C)c1c(O)ccc2c1CCC1[C@@](C)(CO)CCC[C@]21C (stereo partly drawn)
5. CC1(C)O[C@H]2CC(=O)OC[C@]23[C@H]2CC[C@@]4(C)[C@H](c5ccoc5)OC(=O)[C@H]5O[C@]54[C@]2(C)C(=O)C[C@@H]13
6. CC1(C)C2CC(=O)[C@]3(C)C(CC[C@@]4(C)[C@H](c5ccoc5)OC(=O)C5OC543)[C@@]2(C)[C@@H](O)C[C@H]1O (stereo partly drawn)

Response given:
[0.985, 0.984, 0.991, 1.01, 0.984, 1]

Go through the items and report each one's normalized growth.
1. C[N+](C)(C)CC(O)CC(=O)O (stereo not drawn)
2. CC(C)(C)NCC(O)c1cc(O)cc(O)c1 (stereo not drawn)
3. CC(=O)O[C@]1(C(C)=O)CCC2C3C=C(Cl)C4=CC(=O)[C@@H]5C[C@@H]5[C@]4(C)C3CC[C@@]21C (stereo partly drawn)
4. CC(=O)OC(C)C[N+](C)(C)C (stereo not drawn)
5. CNC(C)C(O)c1ccccc1 (stereo not drawn)
6. CC1(C)C=CC(=O)[C@@]2(C)C1CC(=O)[C@]1(C)C2CC[C@@]2(C)[C@H](c3ccoc3)OC(=O)C3OC321 (stereo partly drawn)

Response given:
1: 0.975; 2: 0.982; 3: 1.01; 4: 0.993; 5: 1.01; 6: 0.992

# per-item lookup of normalized growth; items listed below
1. CN1C[C@H](C(=O)N[C@]2(C)O[C@@]3(O)[C@@H]4CCCN4C(=O)[C@H](Cc4ccccc4)N3C2=O)C[C@@H]2c3cccc4[nH]cc(c34)C[C@H]21
2. CCC(c1ccc(O)cc1)C(CC)c1ccc(O)cc1 (stereo not drawn)

Response given:
[0.981, 0.997]

====

- test summary: chemical genetic growth profiling, strain panel (AID 1159580)
- conditions used: S. cerevisiae deletion strains, growth OD, locus YHR079C, strain IRE1, stronger effect = lower value
Hit rate of the full screen: of about 5,500 compounds, about 2,000 (36%) were called active. Inconclusive results (about 18%) are left out. The list shows a part of the results.
assay metric: normalized growth
Give bare numbers.

C[N+](C)(C)CC(O)CC(=O)O (stereo not given) :: 0.976
O=C1Nc2ccccc2/C1=C/c1ccc(C(F)(F)F)cc1Cl :: 0.883
Cc1ccccc1OCC(O)CO (stereo not given) :: 0.973

I would be grateful if you could provide normalized growth for each of the following entries.
1. O=C1Nc2ccccc2/C1=C\c1cccc([N+](=O)[O-])c1
2. COC(=O)c1c(C)cc(O)cc1O

Response given:
0.913
0.996

====

- test summary: chemical genetic growth profiling, strain panel (AID 1159580);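 note: tested at 20 µM; growth read once vehicle control cultures reached saturation at 30 °C; 1 = growth at the plate median or of vehicle wells; lower values mean less growth of the strain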
- conditions used: S. cerevisiae deletion strains, growth OD, locus YGR078C, strain PAC10, stronger effect = lower value
The whole screen tested about 5,500 compounds, of which about 2,000 (36%) were called active. Another 18% or so got no clear call; they are omitted. The list shows a part of the results.
Hi there, I'd appreciate the recorded normalized growth for every entry that follows.
Give bare numbers.

COC(=O)c1c(C)cc(OC)cc1O :: 0.984
NC(=S)NCCCC(N)C(=O)O (stereo not drawn) :: 1.01

Let's switch to this molecule now.
Item: N#C/C(=C\c1ccc(O)c(O)c1)C(=O)NCCc1ccccc1 | normalized growth: 1.01

====

- test summary: chemical genetic growth profiling, strain panel (AID 1159580);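 note: tested at 20 µM; growth read once vehicle control cultures reached saturation at 30 °C; 1 = growth at the plate median or of vehicle wells; lower values mean less growth of the strain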
- conditions used: S. cerevisiae deletion strains, growth OD, locus YDL101C, strain DUN1, stronger effect = lower value
Among all 5,500 compounds or so, about 2,000 (36%) were called active. Not shown: some 18% with an inconclusive outcome. The list shows a part of the results.
assay metric: normalized growth
Answers are plain numbers.

Illustrative cases are given below, each with its answer.
O=[N+]([O-])c1ccc(OCCCOc2ccc([N+](=O)[O-])cc2)cc1 :: 0.98
CCN(Cc1ccncc1)C(=O)C(CO)c1ccccc1 (centres undefined) :: 0.987
CN1C(C)(C)CCCC1(C)C :: 1.02
CCOC(=O)NC1=C(C2CC2)C(=O)C(NC(=O)OCC)=C(C2CC2)C1=O :: 1
C[C@]12CCC3c4ccc(O)cc4CCC3C1CC[C@@H]2O (some centres undefined) :: 1

Hey, can you go through the list below and give me normalized growth for every item?
1. COc1ccc2c(c1)CCC1C2CCC2(C)C1C[C@@H](O)C2O (some centres undefined)
2. CCCCCc1c2c(cc(O)c1C(=O)O)OC(=O)c1c(cc(OC)cc1C(=O)CCCC)O2

Response given:
1. 1.02
2. 0.998

Required: normalized growth, one value per compound below.
1. O=C1c2ccccc2C(=O)N1CNc1ccc(N2CCOCC2)cc1
2. CC12CCC3c4ccc(OC(=O)c5ccccc5)cc4CCC3C1CCC2O (centres undefined)

Response given:
[1.01, 0.992]

====

- test summary: chemical genetic growth profiling, strain panel (AID 1159580);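 note: tested at 20 µM; growth read once vehicle control cultures reached saturation at 30 °C; 1 = growth at the plate median or of vehicle wells; lower values mean less growth of the strain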
- conditions used: S. cerevisiae deletion strains, growth OD, locus YJR075W, strain HOC1, stronger effect = lower value
Among all 5,500 compounds or so, about 2,000 (36%) were called active. Roughly 18% stayed inconclusive and do not appear here. The list shows a part of the results.
assay metric: normalized growth
Answers are plain numbers.

Reference set (3 entries):
NC(=O)NCC(N)C(=O)O (centres undefined) :: 1.02
CCN(CC)C(=O)N[C@H]1C=C2c3cccc4[nH]cc(c34)C[C@H]2N(C)C1 :: 1.02
COc1cc(OC)c(/C=C2/C(=O)Nc3ccccc32)c(OC)c1 :: 1.01

We next turn to a different compound, shown below.
The compound C[C@]12CCC3c4ccc(O)cc4CCC3C1C[C@@H](O)[C@@H]2O (some centres undefined) showed normalized growth equal to 0.992
